biological target: T1, MHC class I molecule HLA-A*0201 (iTopia plate-bound monomer) (biotin (bound to streptavidin-coated plate)); assay: iTopia off-rate assay, 37 C; fit R^2 0.77
T1 construct: also called A2
Task for the reader: assign each of the following binders its reported t½ half life.
Respond numerically; units are h and should not be typed.

Record PLPDQCPAL (also called Peptide No 29) [5T4 9-mer peptide 29 PLPDQCPAL] . Reported t½ half life: 2.8

Lookup result for VLAQLPSLR [5T4 9-mer peptide 115 VLAQLPSLR] ; measured t½ half life: 0.6

Reported t½ half life of AYVRNLFLT (also called Peptide No 46) [5T4 9-mer peptide 46 AYVRNLFLT] : 6.8

Record LQGLRRLEL [5T4 9-mer peptide 105 LQGLRRLEL] , field t½ half life: 2.1
